- testedOn: Voltage-gated potassium channel subunit beta-2 (Rattus norvegicus) (UniProt P62483)
- Sequence (P62483 whole entry, looked up): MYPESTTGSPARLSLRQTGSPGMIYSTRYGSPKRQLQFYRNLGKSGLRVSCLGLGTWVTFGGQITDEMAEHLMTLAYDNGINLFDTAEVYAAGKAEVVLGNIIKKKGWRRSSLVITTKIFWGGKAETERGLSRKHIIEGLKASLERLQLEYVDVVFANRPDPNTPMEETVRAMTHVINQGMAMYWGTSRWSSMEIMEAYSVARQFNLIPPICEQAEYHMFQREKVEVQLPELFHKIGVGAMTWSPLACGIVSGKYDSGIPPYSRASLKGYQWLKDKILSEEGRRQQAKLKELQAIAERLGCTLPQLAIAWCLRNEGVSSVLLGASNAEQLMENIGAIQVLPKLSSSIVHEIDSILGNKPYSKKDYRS
- protocolNotes: enhancers of rat Kvbeta2 NADPH turnover – biochemical, NADPH fluorescence, primary screen (AID 623);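 note: fluorescence intensity change per second fitted from 20 to 320 s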
- experimentalContext: Recombinant KvBeta, NADPH fluorescence decrease slope, 10 min; at 10 µM; stronger effect = lower value
measurementName: NADPH fluorescence slope
Please state the value as a number alone, without comment.

Recorded NADPH fluorescence slope for CCOC(=O)C1=C(C)N(C)C(C)=C(C(=O)OCC)C1c1cccnc1 with Voltage-gated potassium channel subunit beta-2 (Rattus norvegicus) (UniProt P62483), please?
-2.2e-05

Recorded NADPH fluorescence slope for Cn1c(=O)[nH]c(=O)c2c1nc(N1CCOCC1)n2CC(O)COc1ccc2ccccc2c1 (centres undefined) with Voltage-gated potassium channel subunit beta-2 (Rattus norvegicus) (UniProt P62483), please?
-3.2e-05

Recorded NADPH fluorescence slope for CCOc1ccc2nc(N3CCC(C(=O)N4CCN(C5CCCCC5)CC4)CC3)sc2c1 with Voltage-gated potassium channel subunit beta-2 (Rattus norvegicus) (UniProt P62483), please?
6.2e-06

Recorded NADPH fluorescence slope for CSc1cccc(NC(=O)CN(C)S(=O)(=O)c2ccccc2)c1 with Voltage-gated potassium channel subunit beta-2 (Rattus norvegicus) (UniProt P62483), please?
-3.2e-05

Recorded NADPH fluorescence slope for CC(C)OC(=O)c1cc(NC(=O)C2C3CCC(O3)C2C(=O)O)cc(C(=O)OC(C)C)c1 (centres undefined) with Voltage-gated potassium channel subunit beta-2 (Rattus norvegicus) (UniProt P62483), please?
-5.2e-05

Recorded NADPH fluorescence slope for O=S(=O)(Nc1cccnc1)c1ccc2c(c1)OCCO2 with Voltage-gated potassium channel subunit beta-2 (Rattus norvegicus) (UniProt P62483), please?
-4.2e-05

Recorded NADPH fluorescence slope for COc1ccc(NC(=O)CSc2nc(C)cc(C(F)(F)F)n2)cc1 with Voltage-gated potassium channel subunit beta-2 (Rattus norvegicus) (UniProt P62483), please?
-2.1e-05

Recorded NADPH fluorescence slope for CCCC(=O)Nc1ccccc1NC(=O)CCC with Voltage-gated potassium channel subunit beta-2 (Rattus norvegicus) (UniProt P62483), please?
-6e-05

Recorded NADPH fluorescence slope for CCOC(=O)N1CCC(n2c(SCC(=O)NCc3ccco3)nc3ccsc3c2=O)CC1 with Voltage-gated potassium channel subunit beta-2 (Rattus norvegicus) (UniProt P62483), please?
-2.9e-05

Recorded NADPH fluorescence slope for COc1ccccc1C(=O)Nc1ccc(N2CCN(Cc3ccccc3)CC2)cc1 with Voltage-gated potassium channel subunit beta-2 (Rattus norvegicus) (UniProt P62483), please?
-1.3e-06

Recorded NADPH fluorescence slope for CSc1ncc(Cl)c(C(=O)Nc2ccc(S(=O)(=O)N3CCOCC3)cc2)n1 with Voltage-gated potassium channel subunit beta-2 (Rattus norvegicus) (UniProt P62483), please?
-5.7e-05

Recorded NADPH fluorescence slope for O=C(CN1C(=O)CSC1=O)Nc1ccc(N2CCOCC2)cc1 with Voltage-gated potassium channel subunit beta-2 (Rattus norvegicus) (UniProt P62483), please?
-2.2e-05

Recorded NADPH fluorescence slope for CC(C)COc1ccc(C(=O)OCCN2CCOCC2)cc1 with Voltage-gated potassium channel subunit beta-2 (Rattus norvegicus) (UniProt P62483), please?
1.1e-05

Recorded NADPH fluorescence slope for CCCn1c(SCC(=O)N2CCCc3ccccc32)nnc1-c1ccccn1 with Voltage-gated potassium channel subunit beta-2 (Rattus norvegicus) (UniProt P62483), please?
-6.6e-06

Recorded NADPH fluorescence slope for O=C1c2oc3ccccc3c(=O)c2C(c2cccnc2)N1Cc1ccco1 (centres undefined) with Voltage-gated potassium channel subunit beta-2 (Rattus norvegicus) (UniProt P62483), please?
-3.2e-05

Recorded NADPH fluorescence slope for COc1ccc(C)cc1-n1nnnc1SC/C(O)=C(\C#N)c1nc2ccccc2[nH]1 with Voltage-gated potassium channel subunit beta-2 (Rattus norvegicus) (UniProt P62483), please?
-3.4e-05

Recorded NADPH fluorescence slope for Cc1ccc(S(=O)(=O)N2CCN(c3nc(C)nc4sc(C)c(C)c34)CC2)cc1 with Voltage-gated potassium channel subunit beta-2 (Rattus norvegicus) (UniProt P62483), please?
-5.6e-05

Recorded NADPH fluorescence slope for O=C(O)c1[nH]c2ccc(Cl)cc2c1CC(=O)N1CCN(C(=O)c2ccco2)CC1 with Voltage-gated potassium channel subunit beta-2 (Rattus norvegicus) (UniProt P62483), please?
-3.1e-05

Recorded NADPH fluorescence slope for O=C(Nc1ccc(-c2nc3ncccc3o2)cc1)c1ccc(Br)o1 with Voltage-gated potassium channel subunit beta-2 (Rattus norvegicus) (UniProt P62483), please?
-3.3e-06

Recorded NADPH fluorescence slope for COc1ccc(N(C)C(=O)CCS(=O)(=O)c2cccc3nonc23)cc1 with Voltage-gated potassium channel subunit beta-2 (Rattus norvegicus) (UniProt P62483), please?
1.2e-05

Recorded NADPH fluorescence slope for c1ccc2c(c1)nc(-c1ccncc1)n1nnnc21 with Voltage-gated potassium channel subunit beta-2 (Rattus norvegicus) (UniProt P62483), please?
-1.7e-05

Recorded NADPH fluorescence slope for CN(C)S(=O)(=O)N1CCN(C(=O)N(c2ccccc2)c2ccccc2)CC1 with Voltage-gated potassium channel subunit beta-2 (Rattus norvegicus) (UniProt P62483), please?
-2e-09

Recorded NADPH fluorescence slope for COCCn1c(=NC(=O)CSC(C)=O)sc2cc(F)ccc21 with Voltage-gated potassium channel subunit beta-2 (Rattus norvegicus) (UniProt P62483), please?
4.1e-05

Recorded NADPH fluorescence slope for CC1Cc2ccccc2N1C(=O)c1cnsn1 (centres undefined) with Voltage-gated potassium channel subunit beta-2 (Rattus norvegicus) (UniProt P62483), please?
-0.000237

Recorded NADPH fluorescence slope for Cc1cnc(-c2nnc(N(C)C(=O)C3CCOC3)s2)cn1 (centres undefined) with Voltage-gated potassium channel subunit beta-2 (Rattus norvegicus) (UniProt P62483), please?
-6.2e-06

Recorded NADPH fluorescence slope for Cc1ccc(S(=O)(=O)NCCSc2nnnn2-c2ccc(C(N)=O)cc2)cc1 with Voltage-gated potassium channel subunit beta-2 (Rattus norvegicus) (UniProt P62483), please?
4.8e-06

Recorded NADPH fluorescence slope for CCOC(=O)c1cccc(NC(=O)CSc2nc3cccnc3n2C)c1 with Voltage-gated potassium channel subunit beta-2 (Rattus norvegicus) (UniProt P62483), please?
4.1e-06

Recorded NADPH fluorescence slope for CCn1c(SCC(=O)Nc2ccccc2N2CCCCC2)nc2c1c(=O)n(C)c(=O)n2C with Voltage-gated potassium channel subunit beta-2 (Rattus norvegicus) (UniProt P62483), please?
-6.7e-05

Recorded NADPH fluorescence slope for Cc1nn(C(=O)c2ccccc2)c2c1C(=O)CC(C)(C)C2 with Voltage-gated potassium channel subunit beta-2 (Rattus norvegicus) (UniProt P62483), please?
-1e-05
